biological target: Ryanodine receptor 3 (Mus musculus)
measurement.kind: IC50

[[record]]
record_smiles = "CC(C)[C@@]1(O)[C@@H](OC(=O)c2ccc[nH]2)[C@@]2(O)[C@@]3(C)C[C@]4(O)O[C@@]5([C@H](O)[C@@H](C)CC[C@]35O)[C@@]2(O)[C@@]14C"
measurement_kind = "IC50"
experimental_result = "3.3 nM"


----------
molecular target: UniProtKB P11716; assay: Displacement of [3H]ryanodine from Ca2+-ryanodine receptor in Oryctolagus cuniculus (rabbit) skeletal muscle sarcoplasmic reticulum after 2 hr by competitive inhibition assay relative to ryanodine
Sequence (P11716 whole entry): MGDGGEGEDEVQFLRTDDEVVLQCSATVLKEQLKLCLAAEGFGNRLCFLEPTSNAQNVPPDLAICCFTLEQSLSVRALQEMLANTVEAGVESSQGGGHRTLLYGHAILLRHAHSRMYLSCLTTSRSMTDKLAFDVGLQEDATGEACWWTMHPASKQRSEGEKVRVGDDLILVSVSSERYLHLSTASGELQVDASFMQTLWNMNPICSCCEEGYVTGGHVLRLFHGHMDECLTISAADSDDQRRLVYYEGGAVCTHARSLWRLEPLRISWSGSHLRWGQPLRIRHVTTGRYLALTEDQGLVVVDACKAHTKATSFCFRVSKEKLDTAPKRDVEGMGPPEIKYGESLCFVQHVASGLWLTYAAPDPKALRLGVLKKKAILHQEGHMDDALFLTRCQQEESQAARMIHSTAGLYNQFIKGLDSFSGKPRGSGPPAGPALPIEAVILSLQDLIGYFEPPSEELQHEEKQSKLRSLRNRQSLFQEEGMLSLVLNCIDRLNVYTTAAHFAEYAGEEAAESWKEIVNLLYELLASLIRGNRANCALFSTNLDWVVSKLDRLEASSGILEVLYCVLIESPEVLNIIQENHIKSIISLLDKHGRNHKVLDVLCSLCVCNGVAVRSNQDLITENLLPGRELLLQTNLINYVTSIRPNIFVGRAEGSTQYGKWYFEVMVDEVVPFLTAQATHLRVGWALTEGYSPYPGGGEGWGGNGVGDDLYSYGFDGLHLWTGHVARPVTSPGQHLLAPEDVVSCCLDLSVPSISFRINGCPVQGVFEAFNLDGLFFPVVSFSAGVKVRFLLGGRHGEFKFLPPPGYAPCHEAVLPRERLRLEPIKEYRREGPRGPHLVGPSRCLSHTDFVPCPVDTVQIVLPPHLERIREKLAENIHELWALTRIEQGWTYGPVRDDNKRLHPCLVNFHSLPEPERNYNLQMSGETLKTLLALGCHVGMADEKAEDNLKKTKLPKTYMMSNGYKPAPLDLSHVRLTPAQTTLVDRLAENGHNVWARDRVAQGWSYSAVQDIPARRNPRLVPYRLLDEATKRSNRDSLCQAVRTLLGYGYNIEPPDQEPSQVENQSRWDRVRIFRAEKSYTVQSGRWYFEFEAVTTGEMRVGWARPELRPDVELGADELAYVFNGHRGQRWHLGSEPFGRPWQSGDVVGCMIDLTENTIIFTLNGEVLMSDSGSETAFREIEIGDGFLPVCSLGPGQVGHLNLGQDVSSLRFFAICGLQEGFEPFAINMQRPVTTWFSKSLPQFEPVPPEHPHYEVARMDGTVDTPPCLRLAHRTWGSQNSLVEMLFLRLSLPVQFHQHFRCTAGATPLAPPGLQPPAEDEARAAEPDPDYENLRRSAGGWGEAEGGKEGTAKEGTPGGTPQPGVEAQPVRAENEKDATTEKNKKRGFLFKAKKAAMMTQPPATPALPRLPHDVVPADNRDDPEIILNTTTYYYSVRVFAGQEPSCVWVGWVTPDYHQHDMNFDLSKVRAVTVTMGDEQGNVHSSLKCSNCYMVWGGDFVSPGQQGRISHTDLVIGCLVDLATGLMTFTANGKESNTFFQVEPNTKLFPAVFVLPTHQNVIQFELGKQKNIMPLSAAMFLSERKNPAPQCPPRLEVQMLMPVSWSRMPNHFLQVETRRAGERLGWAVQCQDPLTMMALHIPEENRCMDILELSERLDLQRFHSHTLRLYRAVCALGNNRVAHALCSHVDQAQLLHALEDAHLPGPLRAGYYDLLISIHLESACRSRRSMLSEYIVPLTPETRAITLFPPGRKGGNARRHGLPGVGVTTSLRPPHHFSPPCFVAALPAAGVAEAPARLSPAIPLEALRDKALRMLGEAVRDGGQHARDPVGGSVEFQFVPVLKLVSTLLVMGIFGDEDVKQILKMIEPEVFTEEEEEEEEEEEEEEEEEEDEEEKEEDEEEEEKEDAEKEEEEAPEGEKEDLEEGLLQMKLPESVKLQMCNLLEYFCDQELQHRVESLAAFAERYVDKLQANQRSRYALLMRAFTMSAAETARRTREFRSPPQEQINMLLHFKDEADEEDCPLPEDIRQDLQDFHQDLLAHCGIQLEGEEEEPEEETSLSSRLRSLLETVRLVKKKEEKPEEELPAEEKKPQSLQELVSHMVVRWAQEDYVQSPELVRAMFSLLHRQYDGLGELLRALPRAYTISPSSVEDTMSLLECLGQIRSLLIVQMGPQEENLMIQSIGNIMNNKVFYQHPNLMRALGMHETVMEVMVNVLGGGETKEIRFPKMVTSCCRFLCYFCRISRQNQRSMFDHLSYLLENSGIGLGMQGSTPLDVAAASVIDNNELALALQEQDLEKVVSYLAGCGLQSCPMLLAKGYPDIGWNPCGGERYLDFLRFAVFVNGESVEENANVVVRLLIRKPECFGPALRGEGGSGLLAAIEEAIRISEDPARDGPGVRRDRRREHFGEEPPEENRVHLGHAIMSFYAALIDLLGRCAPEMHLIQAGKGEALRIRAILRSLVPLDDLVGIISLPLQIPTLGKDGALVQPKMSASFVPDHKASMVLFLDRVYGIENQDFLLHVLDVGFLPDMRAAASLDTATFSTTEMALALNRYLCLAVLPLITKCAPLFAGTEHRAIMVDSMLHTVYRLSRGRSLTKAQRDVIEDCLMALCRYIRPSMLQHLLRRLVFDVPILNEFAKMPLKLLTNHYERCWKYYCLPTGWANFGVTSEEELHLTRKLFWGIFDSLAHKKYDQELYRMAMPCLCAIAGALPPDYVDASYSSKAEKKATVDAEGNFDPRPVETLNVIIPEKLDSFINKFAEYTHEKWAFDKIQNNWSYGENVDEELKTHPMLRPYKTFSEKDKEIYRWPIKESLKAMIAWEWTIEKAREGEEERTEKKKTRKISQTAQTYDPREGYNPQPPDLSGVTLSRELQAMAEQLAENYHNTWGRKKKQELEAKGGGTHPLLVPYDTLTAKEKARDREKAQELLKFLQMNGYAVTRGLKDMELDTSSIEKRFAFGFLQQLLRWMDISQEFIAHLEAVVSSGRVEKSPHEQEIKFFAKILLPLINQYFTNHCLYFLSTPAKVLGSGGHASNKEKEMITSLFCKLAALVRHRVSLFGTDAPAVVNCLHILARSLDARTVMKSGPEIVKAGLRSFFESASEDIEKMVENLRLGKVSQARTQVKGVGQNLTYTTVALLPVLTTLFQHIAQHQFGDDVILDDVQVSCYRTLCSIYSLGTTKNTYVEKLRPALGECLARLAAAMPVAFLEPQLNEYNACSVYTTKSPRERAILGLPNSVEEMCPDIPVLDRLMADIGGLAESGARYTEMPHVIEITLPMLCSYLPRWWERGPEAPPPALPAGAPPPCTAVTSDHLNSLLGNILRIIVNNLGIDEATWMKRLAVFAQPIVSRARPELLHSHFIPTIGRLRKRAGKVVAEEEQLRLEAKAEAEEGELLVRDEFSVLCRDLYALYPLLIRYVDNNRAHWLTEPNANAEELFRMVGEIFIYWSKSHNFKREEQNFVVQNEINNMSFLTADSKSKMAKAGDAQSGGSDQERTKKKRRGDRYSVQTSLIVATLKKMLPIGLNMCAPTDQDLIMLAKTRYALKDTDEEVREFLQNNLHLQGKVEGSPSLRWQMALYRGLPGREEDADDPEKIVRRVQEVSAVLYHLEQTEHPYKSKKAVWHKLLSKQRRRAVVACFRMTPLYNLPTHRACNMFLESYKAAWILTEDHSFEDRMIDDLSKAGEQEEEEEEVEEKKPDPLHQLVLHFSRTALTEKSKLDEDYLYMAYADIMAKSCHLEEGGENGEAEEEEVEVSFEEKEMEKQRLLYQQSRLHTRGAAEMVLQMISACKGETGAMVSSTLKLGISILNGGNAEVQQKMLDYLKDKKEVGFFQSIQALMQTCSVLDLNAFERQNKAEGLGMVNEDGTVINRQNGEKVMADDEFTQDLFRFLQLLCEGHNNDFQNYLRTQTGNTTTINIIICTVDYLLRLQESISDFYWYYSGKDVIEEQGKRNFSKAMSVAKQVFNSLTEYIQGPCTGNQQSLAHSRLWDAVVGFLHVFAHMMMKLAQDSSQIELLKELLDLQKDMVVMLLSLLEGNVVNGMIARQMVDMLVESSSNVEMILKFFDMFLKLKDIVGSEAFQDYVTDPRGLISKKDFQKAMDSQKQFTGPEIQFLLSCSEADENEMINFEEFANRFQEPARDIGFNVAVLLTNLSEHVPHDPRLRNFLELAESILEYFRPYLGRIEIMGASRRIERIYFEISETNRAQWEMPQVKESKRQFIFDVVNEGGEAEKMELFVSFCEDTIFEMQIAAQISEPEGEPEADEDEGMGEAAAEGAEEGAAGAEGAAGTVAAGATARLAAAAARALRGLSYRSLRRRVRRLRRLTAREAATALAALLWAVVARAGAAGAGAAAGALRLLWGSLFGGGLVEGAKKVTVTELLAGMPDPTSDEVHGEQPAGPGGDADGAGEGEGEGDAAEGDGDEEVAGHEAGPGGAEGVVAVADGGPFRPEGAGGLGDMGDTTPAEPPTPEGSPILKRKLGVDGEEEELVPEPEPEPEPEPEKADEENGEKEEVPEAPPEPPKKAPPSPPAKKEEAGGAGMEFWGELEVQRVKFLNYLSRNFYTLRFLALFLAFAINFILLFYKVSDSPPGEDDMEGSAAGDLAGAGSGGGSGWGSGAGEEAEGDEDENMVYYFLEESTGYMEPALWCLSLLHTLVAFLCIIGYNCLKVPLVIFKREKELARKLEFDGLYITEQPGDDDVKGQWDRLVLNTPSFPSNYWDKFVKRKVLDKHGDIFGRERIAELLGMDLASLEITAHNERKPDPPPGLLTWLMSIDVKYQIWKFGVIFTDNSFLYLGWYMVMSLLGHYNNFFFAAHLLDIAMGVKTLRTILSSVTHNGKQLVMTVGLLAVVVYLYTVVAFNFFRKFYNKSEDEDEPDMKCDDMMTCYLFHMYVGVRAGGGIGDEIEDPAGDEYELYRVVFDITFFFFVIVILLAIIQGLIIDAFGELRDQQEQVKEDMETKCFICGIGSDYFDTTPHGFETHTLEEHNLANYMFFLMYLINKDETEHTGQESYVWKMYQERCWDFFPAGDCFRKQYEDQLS
measurement.kind: Ratio

[[record]]
molecule = "C=C1CC[C@@]2(O)[C@]3(O[C@@]4(O)C[C@]2(C)C(=O)[C@H](OC(=O)c2ccc[nH]2)[C@](O)(C(C)C)[C@@]4(C)C3=O)[C@@H]1O [4,12-SECO-4,12-DIOXODEHYDRORYANODIN]"
experimental_result = 0.79

[[record]]
molecule = "C=C1CC[C@]2(O)[C@]3(C)C[C@]4(O)O[C@@]2([C@@H]1O)[C@]1(NNC(N)=O)O[C@@]3(O)[C@H](OC(=O)c2ccc[nH]2)[C@](O)(C(C)C)[C@@]14C"
experimental_result = 6.1

[[record]]
molecule = "C=C1CC[C@]2(O)[C@]3(C)C[C@]4(O)O[C@@]2([C@@H]1O)[C@]1(O)O[C@@]3(NNc2ccccc2)[C@H](OC(=O)c2ccc[nH]2)[C@](O)(C(C)C)[C@@]14C"
experimental_result = 5.4

[[record]]
molecule = "CC(C)[C@@]1(O)[C@@H](OC(=O)c2ccc[nH]2)/C(=N/OCc2ccccc2)[C@@]2(C)C[C@]3(O)O[C@]4(C(=O)[C@]13C)[C@H](O)[C@@H](C)CC[C@@]42O"
experimental_result = 1.3

[[record]]
molecule = "CC(C)[C@@]1(O)[C@@H](OC(=O)c2ccc[nH]2)/C(=N/O)[C@@]2(C)C[C@]3(O)O[C@]4(C(=O)[C@]13C)[C@H](O)[C@@H](C)CC[C@@]42O"
experimental_result = 0.76

[[record]]
molecule = "CC(C)[C@@]1(O)[C@@H](OC(=O)c2ccc[nH]2)[C@@H](O)[C@@]2(C)C[C@]3(O)O[C@@]4([C@H](O)[C@@H](C)CC[C@@]42O)[C@@H](O)[C@]13C"
experimental_result = 4.7

[[record]]
molecule = "C=C1CC[C@]2(O)[C@]3(C)C[C@]4(O)O[C@@]2([C@@H]1O)[C@]1(NNc2ccccc2)O[C@@]3(O)[C@H](OC(=O)c2ccc[nH]2)[C@](O)(C(C)C)[C@@]14C"
experimental_result = 2.6

[[record]]
molecule = "C=C1CC[C@]2(O)[C@]3(C)C[C@]4(O)O[C@@]2([C@@H]1O)[C@]1(/N=N/c2ccccc2)O[C@@]3(O)[C@H](OC(=O)c2ccc[nH]2)[C@](O)(C(C)C)[C@@]14C"
experimental_result = 4.7

[[record]]
molecule = "CC(C)[C@@]1(O)[C@@H](OC(=O)c2ccc[nH]2)C(=O)[C@@]2(C)C[C@]3(O)O[C@]4(/C(=N\\O)[C@]13C)[C@H](O)[C@@H](C)CC[C@@]42O"
experimental_result = 1.7

[[record]]
molecule = "CC(C)[C@@]1(O)[C@@H](OC(=O)c2ccc[nH]2)[C@]2(NO)O[C@H]3[C@]45O[C@@](O)(C[C@@]2(C)[C@@]4(O)CC[C@H](C)[C@H]5O)[C@]31C"
experimental_result = 50

[[record]]
molecule = "C=C1CC[C@]2(O)[C@]3(C)C[C@]4(O)O[C@@]2([C@@H]1O)[C@]1(O)O[C@@]3(NN)[C@H](OC(=O)c2ccc[nH]2)[C@](O)(C(C)C)[C@@]14C"
experimental_result = 11

